Assay target: Bifunctional 3'-5' exonuclease/ATP-dependent helicase WRN (Homo sapiens) (UniProt Q14191)
Sequence (Q14191 whole entry, looked up): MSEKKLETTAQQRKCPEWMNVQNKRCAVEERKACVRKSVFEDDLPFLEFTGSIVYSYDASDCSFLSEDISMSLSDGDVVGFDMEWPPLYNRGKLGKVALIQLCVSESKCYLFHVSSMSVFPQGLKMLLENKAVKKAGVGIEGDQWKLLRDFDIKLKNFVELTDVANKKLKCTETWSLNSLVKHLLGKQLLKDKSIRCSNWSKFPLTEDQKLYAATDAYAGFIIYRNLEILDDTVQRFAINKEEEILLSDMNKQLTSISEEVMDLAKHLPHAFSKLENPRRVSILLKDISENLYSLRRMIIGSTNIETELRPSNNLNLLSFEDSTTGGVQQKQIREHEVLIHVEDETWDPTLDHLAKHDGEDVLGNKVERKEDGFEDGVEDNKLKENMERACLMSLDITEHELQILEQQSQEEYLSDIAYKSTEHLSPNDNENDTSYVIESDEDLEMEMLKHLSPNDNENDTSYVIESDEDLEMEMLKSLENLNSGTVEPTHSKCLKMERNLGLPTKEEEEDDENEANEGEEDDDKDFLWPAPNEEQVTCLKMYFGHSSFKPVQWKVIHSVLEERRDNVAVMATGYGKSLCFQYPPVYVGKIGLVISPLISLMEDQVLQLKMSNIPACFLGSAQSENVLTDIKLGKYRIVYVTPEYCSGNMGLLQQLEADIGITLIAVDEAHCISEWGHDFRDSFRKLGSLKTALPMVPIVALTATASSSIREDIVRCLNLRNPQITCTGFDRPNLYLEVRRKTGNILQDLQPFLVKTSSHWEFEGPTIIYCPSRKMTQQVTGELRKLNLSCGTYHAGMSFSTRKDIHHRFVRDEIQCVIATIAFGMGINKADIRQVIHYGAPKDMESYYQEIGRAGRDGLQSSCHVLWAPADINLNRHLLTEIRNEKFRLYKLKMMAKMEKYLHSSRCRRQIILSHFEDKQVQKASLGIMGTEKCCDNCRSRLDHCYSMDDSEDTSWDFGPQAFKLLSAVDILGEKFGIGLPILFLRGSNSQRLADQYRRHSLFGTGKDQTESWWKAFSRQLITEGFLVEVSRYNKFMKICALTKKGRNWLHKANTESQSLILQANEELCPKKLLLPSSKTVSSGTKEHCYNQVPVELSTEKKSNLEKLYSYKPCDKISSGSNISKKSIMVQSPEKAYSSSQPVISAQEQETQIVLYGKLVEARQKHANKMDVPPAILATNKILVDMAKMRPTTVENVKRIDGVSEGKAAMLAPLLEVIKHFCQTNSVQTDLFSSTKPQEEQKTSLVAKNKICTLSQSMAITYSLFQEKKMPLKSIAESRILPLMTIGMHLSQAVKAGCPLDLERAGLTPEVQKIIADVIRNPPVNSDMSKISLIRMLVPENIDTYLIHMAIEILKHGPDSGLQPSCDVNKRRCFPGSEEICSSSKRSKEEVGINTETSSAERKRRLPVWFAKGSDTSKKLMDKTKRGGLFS
Test method notes: qHTS for Inhibitors of WRN Helicase: Confirmatory Assay for Cherry-picked Compounds. (AID 720497); further: nearly all actives have a fitted effect of over 65% in size
Stated conditions: WRN helicase DNA unwinding, fluorescence kinetic; series mostly up to 57.1 µM
This is one part of the list. Results filed as inconclusive are left out. The source made the active and inactive calls. The call rests on the fitted dose curve; in most records, active means well fitted inhibition curve with a large enough effect; inconclusive means small, poorly fitted or top-dose-only effect; inactive means flat fitted curve, though single readings scatter.
Respond using exactly one of the listed classes: yes (active), no (inactive)

Compound | Assigned class
CSc1nnc(SCc2nc3sc(C(=O)O)c(C)c3c(=O)[nH]2)s1 | yes

Query: Which outcome did this test record for the compound Cc1c(CC(=O)N2CCN(C(=O)C3COc4ccccc4O3)CC2)c(=O)oc2c(O)c(O)ccc12 (stereo not drawn) ?
Response: yes

Query: Give the logged outcome of this assay for the following compound: COc1cccc2c1C(=O)c1c(O)c3c(c(O)c1C2=O)CC(O)(C(C)=NNC(=O)c1ccc(Cl)c(Cl)c1)CC3OC1CC(N)C(O)C(C)O1 (stereo not drawn)
Response: yes

Query: Which outcome did this test record for the compound `CCN(CC)CCOc1ccc2c(c1)C(=NNC(=O)c1ccccn1)c1cc(OCCN(CC)CC)ccc1-2` ?
Response: yes

Query: Fill in: this test's call for `COC(=O)/C=C\C(=O)Nc1cccc([N+](=O)[O-])c1` is ___
Response: no

Query: Any idea what this test logged for `CCc1ccc2nc3sc(C(=O)Nc4nnc(CC)s4)c(N)c3cc2c1` ?
Response: yes

Query: For `CN1CCN(S(=O)(=O)c2cccc(C(=O)Nc3sccc3C#N)c2)CC1` , what call appears in the results of this test?
Response: yes

Query: In this assay, the call recorded for `COc1ccc(Cl)cc1NC(=O)CCS(=O)(=O)c1ccc(Br)cc1` was what?
Response: yes

* * *

Assay target: Peroxisome proliferator-activated receptor alpha (Homo sapiens) (UniProt Q07869)
Sequence (Q07869 whole entry, looked up): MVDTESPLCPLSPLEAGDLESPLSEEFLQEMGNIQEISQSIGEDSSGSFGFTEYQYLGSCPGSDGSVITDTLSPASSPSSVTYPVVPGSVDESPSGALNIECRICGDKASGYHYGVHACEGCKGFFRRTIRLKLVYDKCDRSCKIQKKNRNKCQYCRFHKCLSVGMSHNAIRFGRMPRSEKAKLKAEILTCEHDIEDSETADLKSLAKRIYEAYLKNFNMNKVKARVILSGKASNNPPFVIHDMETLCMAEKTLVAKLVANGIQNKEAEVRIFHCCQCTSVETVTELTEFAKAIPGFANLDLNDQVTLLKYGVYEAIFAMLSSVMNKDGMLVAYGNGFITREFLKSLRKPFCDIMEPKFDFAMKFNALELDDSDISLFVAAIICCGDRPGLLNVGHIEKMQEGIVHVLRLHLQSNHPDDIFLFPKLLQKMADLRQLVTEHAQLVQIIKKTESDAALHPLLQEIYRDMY
Test method notes: qHTS assay for small molecule agonists of the peroxisome proliferator-activated receptor alpha (PPARalpha) signaling pathway (AID 651778); further: % of control where 0% means no effect
Stated conditions: PathHunter PPARalpha complementation, chemiluminescence, 6 h; stronger effect = higher value
Attribute measured: max response (%)
// return numeric value only (unit: %, not printed)

Query: // fetch Peroxisome proliferator-activated receptor alpha (Homo sapiens) (UniProt Q07869) max response for `CCCCCCCCCCCCCCCC`
Response: 0.236

Query: Find max response (Peroxisome proliferator-activated receptor alpha (Homo sapiens) (UniProt Q07869)) for the entry O=S(c1ccc(Cl)cc1)c1cc(Cl)c(Cl)cc1Cl (stereo not given)
Response: -1.31

Query: Can you look up max response on Peroxisome proliferator-activated receptor alpha (Homo sapiens) (UniProt Q07869) for `CCCCCCC(C)(C)S` ?
Response: -1.64

Query: Form field - read-out: max response; system: Peroxisome proliferator-activated receptor alpha (Homo sapiens) (UniProt Q07869); submitted item: CC(C)(C)C(O)/C(=C\c1ccc(Cl)cc1)n1cncn1 (stereo not given)
Response: 6.34

Query: Observed max response on Peroxisome proliferator-activated receptor alpha (Homo sapiens) (UniProt Q07869) for `CCCCOCCOCCOC(=O)CCCCC(=O)OCCOCCOCCCC` , please.
Response: 3.34

Query: For the record `CCCOC(=O)NCCCN(C)C` , what value of max response is listed for Peroxisome proliferator-activated receptor alpha (Homo sapiens) (UniProt Q07869)?
Response: -0.73

Query: Report max response for `Cl[Si](Cl)(c1ccccc1)c1ccccc1` tested on Peroxisome proliferator-activated receptor alpha (Homo sapiens) (UniProt Q07869).
Response: 5.98

* * *

Test method notes: S16 Schwann cell viability assay (CellTiter-Glo assay) (AID 624031); further: nearly all actives have a fitted effect of over 70% in size
Stated conditions: S16 rat Schwann cells viability, 24 h; series mostly up to 57.5 µM
Inconclusive results are not listed. The source made the active and inactive calls. The call rests on the fitted dose curve; in most records, active means well fitted cell-killing curve with a large enough effect; inconclusive means small, poorly fitted or top-dose-only effect, or effect the other way; inactive means flat fitted curve, though single readings scatter. Numbered stars: 1 amine (or outer) side, 2 acyl side, 3 side chain; on linkers, the order of the positions; unused ones are H or OH. Bridge positions count the residues as written; N and C are the ends. Square brackets hold non-standard residues; d marks the D form. Peptide text beside a SMILES is read from it. * marks the point of attachment. ξ: configuration not given here. ΔAla(Z-3-ureido) = NC(=O)N/C=C(\N)C(=O)O; X2 = NC1=NC(O)CC(C(N[*:1])C(=O)[*:2])N1; X1 = NC1=NCCC(C(N[*:1])C(=O)[*:2])N1; ξβ3hOrn = NCCCC(N)CC(=O)*; Orn = NCCC[CH](N)C(=O)O; Dap = NC[CH](N)C(=O)O
Respond only with the outcome that fits, drawn from True = active, False = inactive

Solved entries:
Molecule | Assigned class
CC(C)CC1NC(=O)C(CCCN)NC(=O)C(C(C)C)NC(=O)C2CCCN2C(=O)C(Cc2ccccc2)NC(=O)C(CC(C)C)NC(=O)C(CCCN)NC(=O)C(C(C)C)NC(=O)C2CCCN2C(=O)C(Cc2ccccc2)NC1=O (centres undefined) (cyclo(FPV[Orn]LFPV[Orn]L); configuration not given here) | True
NCCCC(N)CC(=O)NCC1NC(=O)C(CO)NC(=O)C(N)CNC(=O)C(C2CCN=C(N)N2)NC(=O)/C(=C/NC(N)=O)NC1=O (stereo not drawn) (H-[Dap]S[Dap](ξβ3hOrn)[ΔAla(Z-3-ureido)][X1]; lactam 1-C; configuration not given here) | False
CC(C)C(NC(=O)C(CC(=O)O)NC(=O)C(CCCCN)NC(=O)C(N)CCCN=C(N)N)C(=O)NC(Cc1ccc(O)cc1)C(=O)O (centres undefined) (H-RKDVY-OH; configuration not given here) | False

Query: I'd appreciate the recorded outcome for NCCCC(N)CC(=O)NC1CNC(=O)C(C2CC(O)N=C(N)N2)NC(=O)/C(=C/NC(N)=O)NC(=O)C(CO)NC(=O)C(CO)NC1=O (stereo not drawn) (ξβ3hOrn-[Dap]SS[ΔAla(Z-3-ureido)][X2]; lactam 1-C; configuration not given here) from this test.
Response: False

* * *

Listed next: entries and their corresponding max response.
Test method notes: qHTS assay for cell viability of HEK293 cells (AID 743288); further: on the % scale 0 is the no-effect control and ±100 the full control effect; nearly all actives have a fitted effect of over 50% in size
Stated conditions: ATP luminescence (CellTiter-Glo), 18 h; stronger effect = lower value
Records with an inconclusive call do not appear. Active and inactive are the calls of the source. Calls follow the shape of the dose curve; as a rule, active = well fitted cell-killing curve with a large enough effect; inconclusive = small, poorly fitted or top-dose-only effect, or effect the other way; inactive = flat fitted curve, though single readings scatter.

Solved entries:
Molecule | max response
N[C@@H]1[C@@H](O)[C@H](O)[C@@H](CO)O[C@H]1O | -8.29% (inactive)
CCOC(=O)C1=NN(c2ccc(Cl)cc2Cl)C(C)(C(=O)OCC)C1 (configuration not stated) | -23.5% (inactive)
Oc1ccc2ccccc2c1N=Nc1ccccc1 | -20.8% (inactive)

Query: Bench note: what max response did `CC(C)(C)c1ccc(C(=O)O)cc1` show?
Response: -3.22% (inactive)

Query: Which max response is listed for `Nc1nc(N)nc(-c2ccccc2)n1` ?
Response: -4.29% (inactive)

Query: Would you mind telling me what max response value was observed for `COC(=O)CSc1cc(N=c2sc(=O)n3n2CCCC3)c(F)cc1Cl` ?
Response: 4.83% (inactive)

Query: Sample `CC(=O)Nc1ccc(N=Nc2cc(C)ccc2O)cc1` — what was its max response?
Response: -16.4% (inactive)

Query: Need max response, item `CC1(C)C(=O)N(Br)C(=O)N1Br`
Response: -3.78% (inactive)

Query: Find the recorded max response belonging to `Cc1ccc2c(c1)C(=O)OC2=O` and report it.
Response: -7.63% (inactive)

Query: What measured max response goes with `CC1(C)CC(OC(=O)CCCCCCCCC(=O)OC2CC(C)(C)NC(C)(C)C2)CC(C)(C)N1` ?
Response: -10.1% (inactive)

Query: Which max response is listed for COC(=O)C1CCC(C(=O)OC)CC1 (configuration not stated) ?
Response: -13.8% (inactive)

Query: Entry `CCOC(=O)COc1cc(-n2ncc(C(F)(F)F)c(C)c2=O)c(F)cc1Cl` has what max response?
Response: 2.7% (inactive)

* * *

Assay target: Luciferin 4-monooxygenase (Photinus pyralis) (UniProt P08659)
Sequence (P08659 whole entry, looked up): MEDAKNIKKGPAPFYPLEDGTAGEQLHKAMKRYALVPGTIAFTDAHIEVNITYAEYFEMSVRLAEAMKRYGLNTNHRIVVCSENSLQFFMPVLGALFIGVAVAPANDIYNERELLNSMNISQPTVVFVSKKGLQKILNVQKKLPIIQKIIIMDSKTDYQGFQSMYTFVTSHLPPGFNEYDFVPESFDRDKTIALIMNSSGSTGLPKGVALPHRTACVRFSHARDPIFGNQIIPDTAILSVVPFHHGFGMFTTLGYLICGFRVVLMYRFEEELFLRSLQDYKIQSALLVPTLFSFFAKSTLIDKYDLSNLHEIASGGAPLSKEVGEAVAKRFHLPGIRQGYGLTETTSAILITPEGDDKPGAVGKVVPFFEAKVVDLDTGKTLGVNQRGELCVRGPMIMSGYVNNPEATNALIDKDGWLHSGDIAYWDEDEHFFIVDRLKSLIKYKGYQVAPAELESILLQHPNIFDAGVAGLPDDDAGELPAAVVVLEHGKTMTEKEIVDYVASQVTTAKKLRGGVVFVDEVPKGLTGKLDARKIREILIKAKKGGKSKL
Test method notes: Biochemical firefly luciferase enzyme assay for NPC (AID 624030);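 further: purified P. pyralis luciferase at 10 nM with luciferin and ATP substrate; 0% = DMSO and -100% = full luciferase inhibition by PTC124 control; nearly all actives have a fitted effect of over 70% in size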
Stated conditions: purified P. pyralis luciferase, luminescence, 5 min; series mostly up to 58.6 µM
Records with an inconclusive call do not appear. Active and inactive are the calls of the source. Calls follow the shape of the dose curve; as a rule, active = well fitted inhibition curve with a large enough effect; inconclusive = small, poorly fitted or top-dose-only effect; inactive = flat fitted curve, though single readings scatter.
Response enum: true (1) for active, false (0) for inactive

Recorded results for 10 compounds are shown here.
Compound | Assigned class
OCC1(O)OC[C@@H](O)[C@H](O)[C@@H]1O (stereo partly specified) | false (0)
CC(=O)OCC(=O)[C@@]1(O)CCC2C3CCC4=CC(=O)CC[C@]4(C)C3=CC[C@@]21C (stereo partly specified) | false (0)
C[C@@H]1O[C@@]2(CS1)CN1CCC2CC1 | false (0)
C[N+](C)(CCOc1ccccc1)Cc1cccs1 (tested in a mixture with another compound) | false (0)
CCOC(=O)C(CS)NCCN[C@@H](CS)C(=O)OCC (stereo partly specified) | false (0)
CCC1NC(=O)C(NC(=O)c2ncccc2O)C(C)OC(=O)C(c2ccccc2)NC(=O)C2CC(=O)CCN2C(=O)C(Cc2ccccc2)N(C)C(=O)C2CCCN2C1=O (stereo unspecified) | false (0)
CCC(Oc1ccccc1)C(=O)NC1C(=O)N2C1SC(C)(C)C2C(=O)O (stereo unspecified) | false (0)
COc1cc2c(c(OC)c1OC)-c1c(cc3c(c1OC)OCO3)CC(C)C(C)(O)C2 (stereo unspecified) | false (0)
CC(C)(S)C(=O)NC(CS)C(=O)O (stereo unspecified) | false (0)
C=CC1=C(C(=O)O)N2C(=O)[C@@H](NC(=O)C(N=O)c3csc(N)n3)[C@H]2SC1 (stereo partly specified) | false (0)

# next compound below
Query: What is the recorded call for this compound in the test? COC(=O)C1=C(C)NC(C)=C(C(=O)O[C@H]2CCN(Cc3ccccc3)C2)C1c1cccc([N+](=O)[O-])c1 (stereo partly specified)
Response: false (0)
